test system: M14 melanoma; assay: NCI tumour cell line growth inhibition, 48 h; in the data active = GI50 below about 0.43 µM; inactive = the rest
Labels: 1.0 for active, 0.0 for inactive

Compound	Class Assignment
COc1ccccc1OCC(=O)Nc1sc2c(c1C(N)=O)CCC2	0.0
CCOc1c(Br)cc(C2C(C(=O)OC)=CN(C)C=C2C(=O)OC)cc1OC	0.0
COc1cc(NS(C)(=O)=O)ccc1Nc1c2ccc(Cl)cc2nc2c(OC)cccc12	1.0
COc1ccc2c(c1)c(-c1ccc(-c3cn(S(=O)(=O)c4ccccc4)c4ccc(OC)cc34)s1)cn2S(=O)(=O)c1ccccc1	0.0
CC1CC2(C)ON=C(c3ccccc3)N2c2ccccc2S1 (centres undefined)	0.0
Cn1nccc1Nc1nccc(-c2cc3c(s2)C(C)(C)N(CCN2CCOCC2)C3=O)n1	1.0
CC(=O)[CH-]C(=O)c1ccccc1.CC(=O)[CH-]C(=O)c1ccccc1.CC[O-].CC[O-].[Zr+4]	0.0
Cc1cc(N2CCCCC2)nc(N(CCCNc2ccnc3cc(Cl)ccc23)Cc2ccco2)n1	0.0
O=C1NN(c2ccc(C(=O)O)cc2)C(=O)/C1=C\c1ccc([N+](=O)[O-])o1	0.0
